biological target: synthetic Aβ protofibrils (Aβ1-42-derived protofibrils) (UniProt P05067 672-713); experiment: Octet BLI (Protein G sensor); PF 3.67 nM
Sequence (P05067 672-713): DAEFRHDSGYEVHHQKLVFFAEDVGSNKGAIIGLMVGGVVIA
pKd: −log10 of the molar value.
property_name: pKd

binder="B51 (hybridoma-purified mAb) (antibody, V domains shown) VH: QVQLVESGGGVVQPGRSLRLSCAASGFTFSSHGMHWVRQAPGKGLEWVAVIWYDGSNKNYADSVKGRFTISRDNSKNTLYLQMNSLRAEDTAVYYCARRGRVGVTRNYYYYGMDVWGQGTTVTVSS VL: AIQMTQSPSSLSASVGDRVTITCRASQGIRNDLGWFQQKPVKAPKLLIYPASSLQSGVPSRFSGSGSGTDFTLTISSLQPEDFATYYCLQDYNYPWTFGQGTKVEIK" result="> 12.00"

So what's the measured pKd for this one? B54 (hybridoma-purified mAb) (antibody, V domains shown) VH: QVQLVESGGGVVQPGRSLRLSCAASGFTFSTYGMHWVRQAPGKGLEWVALIWYDGSKKYYADSVQGRFTISRDSSKNTLYLQMNSLRVEDTAVYYCARRGRVGVTRNYYYYGMDVWGQGTTVTVSS VL: AIQMTQSPSSLSASVGDRVTITCRTSQDIRNDLGWFQQKPGKAPKFLIYPASSLQGGVPSRFSGSGSGTDFILTISSLQPEDFATYYCLQDYNFPWTFGEGTKVEIK
> 12.00
